system tested: human ether-à-go-go-related gene (hERG) potassium channel (human, UniProt Q12809)
Sequence (Q12809 whole entry, looked up): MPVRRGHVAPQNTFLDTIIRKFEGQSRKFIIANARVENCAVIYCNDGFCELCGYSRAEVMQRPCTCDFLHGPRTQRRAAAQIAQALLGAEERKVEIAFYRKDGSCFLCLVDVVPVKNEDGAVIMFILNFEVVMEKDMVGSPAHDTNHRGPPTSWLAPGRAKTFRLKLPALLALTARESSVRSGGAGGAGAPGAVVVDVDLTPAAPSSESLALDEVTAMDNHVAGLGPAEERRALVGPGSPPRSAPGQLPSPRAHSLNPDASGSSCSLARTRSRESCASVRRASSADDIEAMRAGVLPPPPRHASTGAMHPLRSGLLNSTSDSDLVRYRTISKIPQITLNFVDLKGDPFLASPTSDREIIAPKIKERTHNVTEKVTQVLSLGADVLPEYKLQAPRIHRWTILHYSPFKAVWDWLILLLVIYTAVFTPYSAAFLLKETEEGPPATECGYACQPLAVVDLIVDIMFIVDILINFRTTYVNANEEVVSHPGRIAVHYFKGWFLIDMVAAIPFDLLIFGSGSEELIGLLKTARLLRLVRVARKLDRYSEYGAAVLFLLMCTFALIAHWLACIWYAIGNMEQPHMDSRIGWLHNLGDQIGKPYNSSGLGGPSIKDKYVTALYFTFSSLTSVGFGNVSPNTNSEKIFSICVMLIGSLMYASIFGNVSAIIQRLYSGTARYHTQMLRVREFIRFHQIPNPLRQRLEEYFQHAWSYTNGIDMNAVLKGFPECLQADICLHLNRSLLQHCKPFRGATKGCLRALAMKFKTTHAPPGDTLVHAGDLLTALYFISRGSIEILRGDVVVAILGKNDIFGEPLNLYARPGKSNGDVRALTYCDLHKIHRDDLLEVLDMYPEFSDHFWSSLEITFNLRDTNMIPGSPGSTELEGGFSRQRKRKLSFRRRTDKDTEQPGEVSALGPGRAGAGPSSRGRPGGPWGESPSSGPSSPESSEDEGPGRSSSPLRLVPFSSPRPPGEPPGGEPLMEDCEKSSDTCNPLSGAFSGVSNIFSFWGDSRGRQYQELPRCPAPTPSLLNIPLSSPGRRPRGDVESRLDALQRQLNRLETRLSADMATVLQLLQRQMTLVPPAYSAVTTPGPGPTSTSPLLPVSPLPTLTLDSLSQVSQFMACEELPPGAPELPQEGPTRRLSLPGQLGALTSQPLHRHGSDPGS
measurement notes: primary screen, population patch clamp on CHO cells stably expressing hERG; higher = less effect of the substance
Out of some 310,000 compounds screened, about 14,000 (4.5%) showed an effect of 50% or more. The effect is printed as a negative number. The list comes from a sample in which strong results are over-represented; it also holds close analogues and randomly drawn compounds.
readout: hERG current change (%, negative = inhibition) at 10uM (%)
# value in %; strip the unit string

c1ccc(-n2nnnc2-c2cnc(-c3cccnc3)nc2-c2cccs2)cc1    -10.6
COC(=O)c1oc2ccc(Br)cc2c1NC(=O)CCCN1C(=O)c2ccccc2C1=O    17.1
Cc1ccsc1/C=N\NC(=O)c1cc(C(C)(C)C)[nH]n1    -9.77

Query: What value of measured hERG current change (%, negative = inhibition) at 10uM is listed for `COC(=O)c1oc2ccc(Br)cc2c1NC(=O)CCN1CCOCC1` ?
Result: -17.7

Query: Give its hERG current change (%, negative = inhibition) at 10uM value. Item: `CCOC(=O)c1oc2ccc(Br)cc2c1NC(=O)CN1CCN(C)CC1`
Result: -65.8

Query: Fill blank: measured hERG current change (%, negative = inhibition) at 10uM of the molecule O=C(C1CCCN(c2nnc(-n3cccc3)s2)C1)N1CCN(c2ccccc2)CC1 (stereo not shown) is ____.
Result: -47

Query: I would be grateful if you could share the reported hERG current change (%, negative = inhibition) at 10uM for `COC(=O)c1oc2ccc(Br)cc2c1NC(C)=O` .
Result: 3.19

Query: Please report the recorded hERG current change (%, negative = inhibition) at 10uM for `CCCC(=O)Nc1c(C(=O)OCC)oc2ccccc12` .
Result: 1.98

Query: # query: hERG current change (%, negative = inhibition) at 10uM of entry `CC1CCN(Cc2ccc(NC(=O)C3CCN(c4nnc(-n5cccc5)s4)CC3)cc2)CC1`
Result: 1.05

Query: What measured hERG current change (%, negative = inhibition) at 10uM goes with `O=S(=O)(/N=C(/NC(=S)Nc1ccccc1)c1ccccc1)c1ccc(Cl)cc1` ?
Result: 18.9

----------
This listing pairs compounds with measured hERG current change (%, negative = inhibition) at 10uM.
system tested: human ether-à-go-go-related gene (hERG) potassium channel (human)
measurement notes: primary screen, population patch clamp on CHO cells stably expressing hERG; higher = less effect of the substance
The whole screen tested about 310,000 compounds, of which about 14,000 (4.5%) showed an effect of 50% or more. Effects have a minus sign here. The list comes from a sample in which strong results are over-represented; it also holds close analogues and randomly drawn compounds.
Numeric answer plus unit only.

Some compounds with recorded hERG current change (%, negative = inhibition) at 10uM:
C=CCn1c(SCC(=O)c2ccc(OC)cc2)nnc1-c1cc2cccc(OC)c2o1    25.8%
CCOC(=O)c1[nH]c2ccc(Br)cc2c1NC(=O)CNC    -7.67%
Cc1c(Cl)cccc1N1C(=O)C2ON(c3ccccc3)C(c3cccnc3)C2C1=O (stereo not drawn)    4.12%
COc1ccc2c(c1)OC[C@H]1[C@H]2N2C(=O)CN(CC3CCCO3)C(=O)[C@@]2(C)[C@H]1c1ccccc1 (stereo partly drawn)    -1.62%
CCOC(=O)c1[nH]c2ccc(F)cc2c1NC(=O)CCN1CCOCC1    3.03%
CCOC(=O)C1CCN(Cc2cn[nH]c2-c2ccc(C)cc2)CC1    -51.8%
Cc1sc2ncn(CC(=O)N3CCN(c4ccccn4)CC3)c(=O)c2c1S(=O)(=O)N1CCCCC1    -36.7%
CCOC(=O)C1CCN(Cc2cn[nH]c2-c2ccccc2)CC1.O=C(O)C(=O)O    -9.8%

Note: attention shifts to another entry.
Query: I would be grateful if you could share the reported hERG current change (%, negative = inhibition) at 10uM for `CCOC(=O)N1CCN(Cc2cn[nH]c2-c2ccc(-c3ccccc3)cc2)CC1` .
Result: -54.8%

----------
hERG current change (%, negative = inhibition) at 10uM reference
system tested: human ether-à-go-go-related gene (hERG) potassium channel (human, UniProt Q12809)
measurement notes: primary screen, population patch clamp on CHO cells stably expressing hERG; higher = less effect of the substance
Description: Briefly, Chinese hamster ovary (CHO) cells stably expressing the hERG channel were dislodged from tissue culture flasks and dispensed into PPC plates. […] During the recording, background leak currents were estimated by a 100 ms step to -80 mV from an initial holding potential of -70 mV and subtracted from the subsequent current measurement. The campaign was conducted in two phases using slight differences in recording protocol. […]
In all, about 310,000 compounds went through this assay and about 14,000 (4.5%) showed an effect of 50% or more. Effects have a minus sign here. Only a selection was taken, and strong results are over-represented in it overall.
The reply should be a number in %, with the unit left off.

Query: Tell me the measured hERG current change (%, negative = inhibition) at 10uM of `C[n+]1ccc(C(=O)N/N=C/c2ccco2)cc1.[I-]` , please.
Result: 26.7

----------
system tested: human ether-à-go-go-related gene (hERG) potassium channel (human)
measurement notes: primary screen, population patch clamp on CHO cells stably expressing hERG; higher = less effect of the substance
Procedure: Briefly, Chinese hamster ovary (CHO) cells stably expressing the hERG channel were dislodged from tissue culture flasks and dispensed into PPC plates. […] During the recording, background leak currents were estimated by a 100 ms step to -80 mV from an initial holding potential of -70 mV and subtracted from the subsequent current measurement. The campaign was conducted in two phases using slight differences in recording protocol. […]
Hit rate of the full screen: of about 310,000 compounds, about 14,000 (4.5%) showed an effect of 50% or more. Effects have a minus sign here. The full list was thinned out, with strong results kept by preference.
We use -20% as the dividing line for hERG current change (%, negative = inhibition) at 10uM: on or above the line is Criterion met, below is Criterion not met.

// below: answered molecules
O=C(NCC1CCCO1)c1nc2c(nnn2Cc2ccccc2Cl)c(=O)[nH]1 (centres unmarked)    Criterion met
N=c1c(C(=O)NCc2ccco2)cc2c(=O)n3ccccc3nc2n1CC1CCCO1 (centres unmarked)    Criterion not met
N=c1c(C(=O)NCC2CCCO2)cc2c(=O)n3ccccc3nc2n1Cc1ccccc1Cl (centres unmarked)    Criterion not met
O=C(Nc1ccc(O)cc1C(=O)O)c1ccc2c(c1)C(=O)N(Cc1ccco1)C2=O    Criterion met
CC1CCCCN1CCCNC(=O)c1cc(Br)c(Br)[nH]1 (centres unmarked)    Criterion not met

Query: I'd appreciate it if you could say whether CCC1CCCCN1CCCNC(=O)c1ccc2c(c1)c(C)c(C)n2C (centres unmarked) has hERG current change (%, negative = inhibition) at 10uM at least equal to -20%.
Result: Criterion not met

Query: Entry N=c1c(S(=O)(=O)c2ccc(Cl)cc2)cc2c(=O)n3ccccc3nc2n1CC1CCCO1 (centres unmarked) : is its hERG current change (%, negative = inhibition) at 10uM no less than -20%?
Result: Criterion met

Query: Exam item: decide whether the reported hERG current change (%, negative = inhibition) at 10uM for CC1CCCC(C)N1CCCNC(=O)c1ccc2nc(N3CCOCC3)sc2c1 (centres unmarked) is at least -20%.
Result: Criterion met

Query: Is reported hERG current change (%, negative = inhibition) at 10uM greater than or equal to -20% here: CCC1CCCCN1CCCNC(=O)c1ccc2nc(N3CCCCC3)sc2c1 (centres unmarked)
Result: Criterion not met

Query: Decide: hERG current change (%, negative = inhibition) at 10uM of Cc1ccnc2nc(C(=O)OCC(=O)NC3CCCC(C)C3C)nn12 (centres unmarked) >= -20%?
Result: Criterion met

Query: Assess whether reported hERG current change (%, negative = inhibition) at 10uM for CCC1CCCCN1CCCNC(=O)c1ccc2nc(N3CCC(C)CC3)sc2c1 (centres unmarked) sits at -20% or higher.
Result: Criterion not met

----------
# hERG current change (%, negative = inhibition) at 10uM per entry
system tested: human ether-à-go-go-related gene (hERG) potassium channel (human)
measurement notes: primary screen, population patch clamp on CHO cells stably expressing hERG; higher = less effect of the substance
Screen size: about 310,000 compounds; about 14,000 (4.5%) showed an effect of 50% or more. Effects have a minus sign here. This is one part of a sample in which strong results are shown more often than they occur.
Express your answer as a number followed by its unit.

Cc1ccc(Cl)cc1NC(=S)N(CCCN1CCN(C)CC1)Cc1ccco1    -52.3%
O=C(Cn1c(CO)nc2ccccc21)Nc1cc(C(F)(F)F)ccc1N1CCOCC1    1.37%
Cc1ccc(C)c(NC(=S)N2CCN(c3cccc(C(F)(F)F)c3)CC2)c1    7.13%
Cc1sc2nc(-c3ccc(Br)cc3)oc(=O)c2c1C    13.3%
CCC(C)N(C(=O)C(F)(F)F)C(C(=O)NC1CCCCC1)c1ccncc1 (stereo not drawn)    7.62%

Query: Give human ether-à-go-go-related gene (hERG) potassium channel (human) hERG current change (%, negative = inhibition) at 10uM for `Cc1ccccc1NC(=S)N(CCCN1CCCCC1)Cc1ccco1`
Result: -45.4%

Query: // lookup hERG current change (%, negative = inhibition) at 10uM | system=human ether-à-go-go-related gene (hERG) potassium channel (human) | key= `CN(CC(=O)Nc1ccc(OC(F)(F)F)cc1)C(=O)C1CCC1`
Result: -1.21%

Query: Under human ether-à-go-go-related gene (hERG) potassium channel (human): hERG current change (%, negative = inhibition) at 10uM value of `COCCCNC(=O)c1ccc(N(C)S(=O)(=O)c2ccc(OC)cc2)cc1` ?
Result: -20.6%

Query: Report hERG current change (%, negative = inhibition) at 10uM for `C=CCNC(=O)c1ccc(CN(c2ccc(OCC)cc2)S(=O)(=O)c2ccc(C)cc2)cc1` tested on human ether-à-go-go-related gene (hERG) potassium channel (human).
Result: -62%

Query: Query hERG current change (%, negative = inhibition) at 10uM on human ether-à-go-go-related gene (hERG) potassium channel (human) for `O=C1NC(=O)C(=Cc2csc3ccccc23)C(=O)N1`
Result: 7.68%

Query: Record lookup: for human ether-à-go-go-related gene (hERG) potassium channel (human), what hERG current change (%, negative = inhibition) at 10uM belongs to COc1ccc(C(=O)Nc2ccc(S(=O)(=O)N3CCCCC3C)cc2)c(OC)c1OC (stereo not drawn) ?
Result: -6.46%

Query: // map `COc1ccc(N(C)S(=O)(=O)c2cccc(C(=O)NC3CCCC3)c2)cc1` to recorded hERG current change (%, negative = inhibition) at 10uM (system: human ether-à-go-go-related gene (hERG) potassium channel (human));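 further: peak tail current of the secondary pulse compared with the same well before compound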
Result: -9.64%

Query: Request: hERG current change (%, negative = inhibition) at 10uM, test system human ether-à-go-go-related gene (hERG) potassium channel (human), entry CCOC(=O)C1CSC(CC(=O)Nc2ccc(OC(F)(F)F)cc2)C(=O)N1 (stereo not drawn);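 further: peak tail current of the secondary pulse compared with the same well before compound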
Result: -56.3%

Query: Request body: readout hERG current change (%, negative = inhibition) at 10uM, system human ether-à-go-go-related gene (hERG) potassium channel (human), query `Cc1cc(Cl)ccc1NC(=S)N(CCCN1CCOCC1)Cc1cccs1` . Return the value.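 Further: peak tail current of the secondary pulse compared with the same well before compound.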
Result: -32.2%

Query: # returns recorded hERG current change (%, negative = inhibition) at 10uM (system: human ether-à-go-go-related gene (hERG) potassium channel (human)) for CCCCCOc1ccc(NC(=O)C(=O)NCC2CCCN2CC)cc1 (stereo not drawn);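 further: peak tail current of the secondary pulse compared with the same well before compound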
Result: -77.9%

Source: paper PMC4336329
